ASSAY TEXT: Human HepG2 cell viability assay in 384 well format
Assay type: toxicity, cell-based
Design: dose 125 nL, time 70.5 hour; concentration not given beside the values
CONDITION DESCRIPTION: HepG2 cells, read-out: Inhibition
TEST READOUT: cytotoxicity at 70.5 h (%)
Please give a number only; it is taken to be in %.

Problem: What measured cytotoxicity at 70.5 h goes with Cn1cnc(S(=O)(=O)N2CCCn3cnc(CN4CCCC4)c3C2)c1 ?
Result: -3.74

Problem: What measured cytotoxicity at 70.5 h goes with Nc1ncccc1CN1C[C@@H]2CC[C@H](C1)N(CC1CC1)C2=O ?
Result: 28

Problem: What measured cytotoxicity at 70.5 h goes with COc1ccccc1-c1ccc(C2CCCN(C(C)=O)C2)nc1 (centres undefined) ?
Result: -0.199

Problem: What measured cytotoxicity at 70.5 h goes with CSc1nccc(NCC2CNCCOC2)n1 (centres undefined) ?
Result: -11.3

----------
ASSAY TEXT: Human HepG2 cell viability assay in 384 well format
Assay type: toxicity, cell-based
Parameters: dose 125 nL, time 70.5 hour; concentration not given beside the values
CONDITION DESCRIPTION: HepG2 cells, read-out: Inhibition
For each of the compounds below, state its cytotoxicity at 70.5 h.
Please give a number only; it is taken to be in %.

Problem: What measured cytotoxicity at 70.5 h goes with CNS(=O)(=O)c1ccc(C(=O)N2CCCC2c2cnn(C)c2)o1 (stereo unspecified) ?
Result: 23

Problem: What measured cytotoxicity at 70.5 h goes with CN(CCn1cccn1)c1cc(C(F)(F)F)nc(-c2cccnc2)n1 ?
Result: -4.93

Problem: What measured cytotoxicity at 70.5 h goes with COc1ncc(CN(C)C2CCN(C(C)C)CC2)cn1 ?
Result: 8.08

Problem: What measured cytotoxicity at 70.5 h goes with CCC[C@H]1CN(c2nccc(NCC)n2)C[C@@H]1NS(=O)(=O)N(C)C ?
Result: -7.09

Problem: What measured cytotoxicity at 70.5 h goes with Fc1ccc(C2CCCN2Cc2nc(Cc3ccccc3F)no2)cc1 (stereo unspecified) ?
Result: 0.991

Problem: What measured cytotoxicity at 70.5 h goes with Cc1ccc(S(=O)(=O)N(C)Cc2cnccn2)cc1N(C)C ?
Result: -1.07

Problem: What measured cytotoxicity at 70.5 h goes with CC(C)SCc1cccc(NC2CCN(C)C2=O)c1 (stereo unspecified) ?
Result: -15.1

Problem: What measured cytotoxicity at 70.5 h goes with Cn1cc(CN2CC[C@H]3CO[C@H](CNc4ncccn4)[C@H]3C2)cn1 ?
Result: 20.3

Problem: What measured cytotoxicity at 70.5 h goes with Cc1cccc(NS(=O)(=O)c2cc3c(c(C(=O)O)c2)OCCO3)c1 ?
Result: -7.67

Problem: What measured cytotoxicity at 70.5 h goes with CN(Cc1ccco1)Cc1cnc2n1CCN(S(C)(=O)=O)CC2 ?
Result: 26.4

Problem: What measured cytotoxicity at 70.5 h goes with O=C(NCCn1ccc(-c2ccccn2)n1)C1CCC1 ?
Result: 1.58

----------
ASSAY TEXT: Human HepG2 cell viability assay in 384 well format
Type: toxicity, cell-based
Set-up: dose 125 nL, time 70.5 hour; concentration not given beside the values
CONDITION DESCRIPTION: HepG2 cells, read-out: Inhibition
TEST READOUT: cytotoxicity at 70.5 h
Write the numeric value and append its unit.

Problem: What measured cytotoxicity at 70.5 h goes with COc1cc2c(cc1OC)C(=O)C(Sc1nncn1C)C2 (configuration not stated) ?
Result: -4.34%

Problem: What measured cytotoxicity at 70.5 h goes with Cc1cc(C2CCCCN2C(=O)CN2CC3(CCNCC3)OC2=O)no1 (configuration not stated) ?
Result: -6.52%

Problem: What measured cytotoxicity at 70.5 h goes with CCOc1ncccc1NC(=O)c1cccs1 ?
Result: -10.3%

Problem: What measured cytotoxicity at 70.5 h goes with CS(=O)(=O)NC[C@]12COC[C@H]1CN(C(=O)Cc1ccccc1F)C2 ?
Result: -1.03%

Problem: What measured cytotoxicity at 70.5 h goes with CCOC[C@@]12CCC[C@@H]1CN(C(=O)COc1ccccc1OC)C2 ?
Result: -8.07%

Problem: What measured cytotoxicity at 70.5 h goes with Cc1ccn(CCNc2ncnc3c2CCN(S(C)(=O)=O)CC3)n1 ?
Result: 1.8%

Problem: What measured cytotoxicity at 70.5 h goes with Cc1nnc([C@@]23CCO[C@@H]2CCN(Cc2cccc4ccccc24)C3)o1 ?
Result: -6.43%

Problem: What measured cytotoxicity at 70.5 h goes with Cc1cc(CNC(=O)CCc2ccc(S(N)(=O)=O)cc2)no1 ?
Result: -11.1%

Problem: What measured cytotoxicity at 70.5 h goes with CCN(C(=O)c1nc2c(s1)CCCN2C)C(C)C ?
Result: -1.08%

Problem: What measured cytotoxicity at 70.5 h goes with O=C(NCCSC1CCCC1)c1ccc(F)cc1F ?
Result: -5.35%

Problem: What measured cytotoxicity at 70.5 h goes with CCc1nccn1-c1cccc(C2CCCN2)n1 (configuration not stated) ?
Result: -1.73%

Problem: What measured cytotoxicity at 70.5 h goes with CCc1nc(C2CCCN2Cc2nc(C3CC3)no2)no1 (configuration not stated) ?
Result: -5.95%

Where these numbers come from: ChEMBL document CHEMBL3507680
